Cited source: ChEMBL document CHEMBL4513216

Test system: Plasmodium berghei
Assay: Screen against P. berghei liver stage (PbLuc), transformed with Luciferase, at 10uM
Assay type: functional, HepG2
Details: tested at 10 uM
The campaign covered roughly 69,000 compounds. About 8,600 (12%) showed an effect of 50% or more. Shown is part of a subset that was picked to be rich in strong results.
Please respond with reported INHIBITION for every item in the list.
Enter your answer as a number in %; do not include the unit.

## Input # INHIBITION lookup, item `CC[C@H](C)[C@H](N)C(=O)N1CC(=O)c2sc(NC3CCCCC3)nc2C1`
## Output 35.2

## Input Now the same for CCN(C(=O)CN1CCCC1c1ccc(F)cc1)c1ccccc1C (stereo not drawn)
## Output -55.1

## Input Now consider c1csc(CCC2CCCCN2Cc2noc(C3CC3)n2)c1 (stereo not drawn) and answer again.
## Output 34.9

## Input Follow-up entry: CS(=O)(=O)NC1CCCN(C(=O)Nc2cccnc2)C1 (stereo not drawn)
## Output 37.3

## Input Next up: Cn1cc(CN2CCC(c3[nH]ncc3S(C)(=O)=O)C2)cn1 (stereo not drawn)
## Output 8.53

## Input Could you do the same for `Cc1nc(C)c(CC(=O)N2C[C@@H]3CC[C@H]2CN(c2cnccn2)C3)s1` , please?
## Output -102

## Input And CCN(C(=O)CN1CCCC1c1cc(C)no1)c1ccccc1C (stereo not drawn) ?
## Output 62.4

## Input Field entry: Cc1nc(CN2CCCCC2CCc2cccs2)co1 (stereo not drawn)
## Output 24.9

## Input Entry COc1c(C2CCCN2CC(=O)Nc2ccncc2)c(C)nn1C (stereo not drawn) please
## Output 21.6

## Input Repeat with `CC(C)Nc1nc2c(s1)C(=O)CN(C(=O)NCc1ccccc1)C2`
## Output 73.8

## Input Likewise for O=C(CCc1ccsc1)Nc1ccnn1C1CCS(=O)(=O)C1 (stereo not drawn) ?
## Output 54.3

## Input // same read-out, input: Cc1cc(C2CCCN2CC(=O)N(CCC#N)c2ccccc2F)on1 (stereo not drawn)
## Output 26.8

## Input Here is the next compound: `CNc1nc2c(s1)C(=O)CN(C(=O)NCCc1ccccc1)C2`
## Output 23.4

## Input What about `CNC(=O)[C@@]12CCO[C@@H]1CCN(Cc1cccc(C)c1)C2` ?
## Output 38.1

## Input Could you do the same for COCc1noc(CN2CCCCC2CCc2cccs2)n1 (stereo not drawn) , please?
## Output 51.2

## Input Repeat for the following compound: `CCNc1nc2c(s1)C(=O)CN(C(=O)NCc1ccccc1)C2`
## Output 66.4

## Input Same again, this time with `CC[C@H](C)[C@H](N)C(=O)N1CC(=O)c2sc(NCc3ccccc3)nc2C1`
## Output 61.9

## Input What would you report for Cc1nc(NCC2CC2)nc2c1COCC21CCN(C(=O)NC(C)C)C1 (stereo not drawn) ?
## Output 29.9
